Source: ChEMBL document CHEMBL1201862

system: OVCAR-4; experiment: NCI tumour cell line growth inhibition, 48 h
The source made the active and inactive calls. No stated cut-off is given here; in the data, active = GI50 up to about 1.1 µM and inactive = higher.
reported property: GI50

Consider the following illustrative entries.
# molecule, GI50
records = [
    ("COC(=O)c1cc(-c2cccn2C)c2c(c1C(=O)OC)c1ccccc1n2C", "37.8 µM (inactive)"),
    ("O=C(/C=C/c1cccs1)c1ccsc1", "51.1 µM (inactive)"),
    ("O=C(O)C(Cc1ccccc1)N1C(=O)c2ccccc2C1=O (centres undefined)", "> 100 µM (inactive)"),
    ("Cc1ccc(-n2nncc2[Si](C)(C)C)s1", "> 100 µM (inactive)"),
    ("N#CC(/C(CCC(=O)Nc1ccc(Cl)cc1)=N/NC(=O)c1cc2ccccc2cc1O)c1ccccc1 (centres undefined)", "51.9 µM (inactive)"),
]

Using known records, supply GI50 for CC(C)CSCC1OC(n2cnc3c(N)nccc32)C(O)C1O (centres undefined) > 100 µM (inactive)

Please supply the value of reported GI50 for the item COC1=CC(=O)[C@H]2[C@H](C)C(c3ccccc3)[C@@]2(C)C1=O (some centres undefined) > 100 µM (inactive)

Using known records, supply GI50 for COC(=O)c1cccc(C)c1C1CN=NC12Cc1c(ccc(C)c1C)C2=O (centres undefined) 56.9 µM (inactive)

Supply recorded GI50 for CCCCc1ccc(NC(=N)N)cc1 here. 25.4 µM (inactive)

----------
test system: LOX IMVI; assay: NCI tumour cell line growth inhibition, 48 h
Calls of active or inactive are those of the source. No stated cut-off is given here; in the data, active = GI50 up to about 1.1 µM and inactive = higher. Square brackets hold non-standard residues; d marks the D form. Peptide text beside a SMILES is read from it. * marks the point of attachment. Phe(4-NO2) = N[CH](Cc1ccc([N+](=O)[O-])cc1)C(=O)O; Cbz = O=C(OCc1ccccc1)*
Give one outcome, nothing more. List: active, inactive

# molecule, answer label
measured = [
    ("CCOC(=O)CCC(NC(=O)OCc1ccccc1)C(=O)NC(CCC(=O)OCC)C(=O)NC(CCC(=O)OCC)C(=O)NC(CCC(=O)OCC)C(=O)NC(CCC(=O)OCC)C(=O)NC(Cc1ccc([N+](=O)[O-])cc1)C(=O)NC(CCC(=O)OCC)C(=O)NC(CCC(=O)OCC)C(=O)NC(CCC(=O)OCC)C(=O)NC(CCC(=O)OCC)C(=O)NC(CCC(=O)OCC)C(=O)OCC (centres undefined) (Cbz-E(OEt)E(OEt)E(OEt)E(OEt)E(OEt)[Phe(4-NO2)]E(OEt)E(OEt)E(OEt)E(OEt)E(OEt)-OEt; configuration not given here)", "inactive"),
    ("O=c1[nH]c2cc3cccnc3c(Cl)c2nc1C(F)(F)F", "inactive"),
]

Identify the outcome logged in this assay for the molecule shown: CC(C)N(C(=O)C12C3C4C5C3C1(C(=O)N(C(C)C)C(C)C)C5C42)C(C)C (centres undefined) inactive

What did the test return for COC(=O)[C@@H](COC(=O)/C=C/c1ccc(OC(C)=O)c(OC(C)=O)c1)NC(=O)/C=C/c1ccc(OC(C)=O)c(OC(C)=O)c1 ? inactive

----------
system: K562; test: NCI tumour cell line growth inhibition, 48 h
Active and inactive are the calls of the source. Rule as the data show it: active = GI50 up to about 1.1 µM and inactive = higher.
I would appreciate it if you answered using one of these outcomes: active, inactive

# compound, target, answer label
measured = [
    ("CO[C@@H](C(=O)OC1C=CC2(CC1)C(=O)N(C)c1ccccc12)c1ccccc1 (stereo not given in full)", "K562", "inactive"),
    ("COc1ccc(C(C#N)NNC(=O)c2ccccc2O)cc1OC (stereo not given)", "K562", "active"),
]

What did the test return for Cc1nnc([C@@]2(C)CC[C@H]3[C@@H](CCC4=CC(=O)CC[C@@]43C)[C@@H]2CC#N)o1 ? inactive

What did the test return for CCOC(=O)c1nc2c(Cl)c3ncccc3cc2[nH]c1=O ? inactive

Just curious, what result did CC(=O)/C=C1\CC(=O)Nc2ccccc2N1 get here? inactive

----------
test system: SF-295; experiment: NCI tumour cell line growth inhibition, 48 h
Active and inactive are the calls of the source. No stated cut-off is given here; in the data, active = GI50 up to about 1.1 µM and inactive = higher.
reported property: GI50

Past entries and their recorded results:
# compound, GI50
records = [
    ("COC(=O)C1=NC(=S)NC(c2ccccc2)C1c1nc2ccccc2s1 (stereo unspecified)", "> 100 µM (inactive)"),
    ("CC1(C)CC(=O)C(C(=O)Nc2cccs2)=C(O)C1", "28.9 µM (inactive)"),
    ("COc1ccc(-n2sc3ncccc3c2=O)cc1", "> 100 µM (inactive)"),
    ("Nc1ncnc2c1ncn2C1CC(O)C(CO)O1 (stereo unspecified)", "> 100 µM (inactive)"),
    ("CSC12c3cc(C)n(-c4ccc(I)cc4)c3CC(C)(C)CN1C(=O)C2Oc1ccccc1 (stereo unspecified)", "> 100 µM (inactive)"),
]

# input for lookup
Give reported GI50 value for COc1ccc2nc3ccccc3c(NCCCCCCN(C)CCCl)c2c1 1 µM (active)

----------
// values below are reported GI50
system: RPMI-8226; assay: NCI tumour cell line growth inhibition, 48 h
Counter-ions that a name gives are not always drawn. Activity calls are given as the source filed them. No stated cut-off is given here; in the data, active = GI50 up to about 1.1 µM and inactive = higher.

Below, each entry is followed by its recorded GI50 result.
# compound, reported property, result
data = [
    ("CCCCCCCCC[C@@H]1CC(=O)OCC2OC(O[C@H](CCCCCCCCC)CC(=O)OCC3OC(O[C@H](CCCCCCCCC)CC(=O)OCC4OC(O1)C(O)C(O)C4O)C(O)C(O)C3O)C(O)C(O)C2O (stereo partly drawn)", "GI50", "14.5 µM (inactive)"),
    ("CC1CC2C(=O)NC(=O)C2c2[nH]c3ccccc3c21 (stereo not drawn)", "GI50", "> 100 µM (inactive)"),
    ("COC(=O)CCC(C)[C@H]1CCC2C3C(C[C@H](OC(C)=O)[C@@]21C)[C@@]1(C)CCC2(C[C@H]1C[C@H]3OC(C)=O)OOC1(CCCCCCC1)OO2 (stereo partly drawn)", "GI50", "1.67 µM (inactive)"),
    ("C[n+]1cc(C(O)c2ccc3c(c2)OCO3)c2ccccc2c1 (stereo not drawn)", "GI50", "13.9 µM (inactive)"),
    ("N#C/C(=C\\c1cccc(Cl)c1Cl)c1ccccc1", "GI50", "> 61.9 µM (inactive)"),
]

Could you please provide reported GI50 for COC(=O)c1cc(NC(=O)Cc2c[nH]c3ccccc23)cn1C ? Thanks! 21.3 µM (inactive)

Tell us which GI50 value is on record for CC(NC(C)(C)C)C(=O)c1cccc(Cl)c1 (stereo not drawn) [BUPROPION HYDROCHLORIDE] > 100 µM (inactive)

State, in one line, measured GI50 of COc1ccc(NC(=O)CC/C(CC(=O)c2ccco2)=N/NC(N)=S)cc1 > 100 µM (inactive)

Let me know recorded GI50 for CC1CC(=O)Nc2ccc(/N=N/N(C)C)cc2N1C=O (stereo not drawn) , thanks. > 100 µM (inactive)

Name the recorded GI50 of the item CCCCCCCCCCCCCCCCCCN(C)C(COC)COP(=O)([O-])OCC[N+](C)(C)C (stereo not drawn) in your answer. 1.83 µM (inactive)

Return reported GI50. Input compound: CNC1=C/C(=N/C2=CC(=N/C(=C\C#N)C(C)(C)O)/OC2(C)C)OC1(C)C 4.43 µM (inactive)

Quick one: give measured GI50 for COc1ccc(CN2C(=O)[C@@H]3Cc4c(OC)c(C)c(OC)c(OC)c4[C@H](/C2=C\c2cc(OC)c(OC)c(C)c2OC)N3C(=O)OC(C)C)cc1 8.34 µM (inactive)

Give GI50 for the following compound: Nc1c(C(=O)O)nnc2cc(Cl)c(Cl)cc12 > 100 µM (inactive)

Please list GI50 recorded for the compound S=c1[nH]c2c(Cl)c(Cl)c(Cl)c(Cl)c2[nH]1 3.52 µM (inactive)

Consider the compound COc1ccc2c3c1OC1C(=O)C=CC4(CC2)N(C)CCC314 (stereo not drawn) and give its recorded GI50. 17 µM (inactive)

Indicate its recorded GI50; the compound in question is Cc1ccc(N2C(=O)C3CSCN3C2=O)cc1 (stereo not drawn) > 100 µM (inactive)

State its GI50 for this compound: Nc1ccc(C(=O)CC2(O)C(=O)Nc3ccccc32)cc1 (stereo not drawn) > 100 µM (inactive)

----------
tested on: U-251; assay: NCI tumour cell line growth inhibition, 48 h
Active and inactive are the calls of the source. Cut-off read from the data, not from the text of the source: active = GI50 up to about 1.1 µM and inactive = higher.
reported property: GI50

# compound, result
data = [
    ("COc1cccc(/C=N/n2c(C)n[nH]c2=O)c1", "> 100 µM (inactive)"),
    ("O=C1NCC2=C1CCC1c3ccccc3CCN21 (stereo not drawn)", "> 100 µM (inactive)"),
    ("COc1ccc(C2SCC(=O)N2c2ccc(-c3ccc(-n4c(-c5ccccc5)nc5ccccc5c4=O)cc3)cc2)cc1 (stereo not drawn)", "48.5 µM (inactive)"),
    ("COS(C)(=O)=O", "> 2 µM (inactive)"),
]

Kindly indicate its recorded GI50. Item: CCN(CC)CC1CCCCN1CC(=O)N1c2ccccc2NC(=O)CC1C (stereo not drawn) > 100 µM (inactive)

Fill in GI50 for record CCCCCCCCCCCCCCCC[N+](C)(C)CCl 1.68 µM (inactive)

Write down GI50 measured for item N#CN=C(NCCO)NCCO > 100 µM (inactive)

Using known records, supply GI50 for CCCCc1ccc(NC(=N)N)cc1 85.3 µM (inactive)

Supply reported GI50 belonging to this compound: N#CCCN(CCN(CCN(C(=O)Nc1ccccc1)c1ccccc1)C(=O)Nc1ccccc1)C(=O)Nc1ccccc1 5.7 µM (inactive)

Query GI50 for CC1(C)[N+]([O-])=[N+]([O-])C1(C)O (stereo not drawn) > 100 µM (inactive)

Dear colleague, please send me the reported GI50 for COc1ccc2c3c1OC1C(=O)C=CC4(CC2)N(C)CCC314 (stereo not drawn) when you can. 19.5 µM (inactive)
